Catalogue of composite z-score values
Tested on: Lefty1
Experiment: Lefty1 binders on small-molecule microarrays, primary screen, biochemical, small-molecule microarray, 635/667 nm fluorescence (AID 1139)
Conditions: small-molecule microarray binding, fluorescence 635/667; higher = more signal
// return a plain number; no unit text

| COMPOUND | TESTED TARGET | NUMBER |
| --- | --- | --- |
| CC1(C)[C@@H]2CC(C(O)C3C=CC4C(=O)N(c5ccccc5)C(=O)C4N3Nc3ccc([N+](=O)[O-])cc3)=C[C@H]1C2 (stereo partly drawn) | Lefty1 | 0.619 |
| O=C1N[C@@H](Cc2ccccc2)C(=O)N2[C@@H]1C[C@@H](C(=O)O)[C@H]2c1cccc(OCCO)c1 | Lefty1 | 1.49 |

## Input In one line, give reported composite z-score of the entry C=CC1(C(=O)OC)CC=C(C(=O)OC)CC1 (stereo not drawn) .
## Output 0.308

## Input Output measured composite z-score for this item: CC(C)C(=C=CC[C@H](O)c1ccc(OCCO)cc1)CCO
## Output 1.07

## Input Fill in reported composite z-score for this entry: C[N+](C)(C)CCCCNC(=O)[C@H]1C[C@H]2C(=O)N3CCC[C@H]3C(=O)N2[C@H]1c1cccc(OCCO)c1
## Output 0.974

## Input Give composite z-score for the following compound: O=C(NCCN1CCOCC1)[C@@H]1c2ccccc2C(=O)N(C2CCCCC2)[C@H]1c1ccc(CO)cc1
## Output -0.0981

## Input Fill in reported composite z-score for this entry: CN1C=C(C(=O)OCCS(C)(=O)=O)C(C(=O)OCCS(C)(=O)=O)=CC(c2ccc(CO)cc2)=CC1C1CC1 (stereo not drawn)
## Output 0.53

## Input Respond only with composite z-score recorded for CCS[C@H]1[C@@H](C(=O)O)[C@H](c2ccc(C)cc2)N(S(=O)(=O)c2ccc(C)cc2)[C@@H]1CC
## Output -0.0097

* * *

Assay: S. cerevisiae growth modulation with rapamycin, primary screen, strain BY4716, OD600, 96 h (AID 1091); further: test concentration not given here
Settings: higher = more signal, called active from +8 up or from −8 down
Consider the following compounds and their measured z-score readings.
# answer = number (no unit)

Worked set:
| SMILES INPUT | z-score |
| --- | --- |
| COCCOC(=O)N1C(=O)[C@@]2(c3cc(C#CCC(C(=O)OC)C(=O)OC)ccc31)[C@H](c1ccccc1OCCO)N1[C@H](c3ccccc3)[C@H](c3ccccc3)OC(=O)[C@H]1[C@@H]2C(=O)NC[C@H](O)c1ccccc1 | 5.84 |
| O=C(c1ccccc1)N1C(=O)[C@@]2(Cc3ccccc31)N=C(c1ccc(OCCCO)cc1)O[C@H]2c1ccccc1 | 1.74 |

## Input Using the record for COC(=O)[C@@]1(Cc2ccc(OC)cc2)[C@H]2c3cc(C(=O)N(C)C)n(Cc4ccc(S(C)(=O)=O)cc4)c3C[C@H]2CN1C(=O)c1ccccc1 , state its measured z-score.
## Output -0.154

* * *

The reader will find reported composite z-score values listed item by item below.
Molecular target: Dickkopf-related protein 1 (Homo sapiens)
Experiment: DKK1 binders on small-molecule microarrays, primary screen, biochemical, small-molecule microarray, 635 nm fluorescence scan (AID 1106);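 further: score merges emission near 667 nm with signal to noise over three replicate slides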
Conditions: DKK1 binding, higher = more signal
// keep it numeric: no unit symbol after the value

| COMPOUND | composite z-score |
| --- | --- |
| C=CCNC(=O)[C@H]1[C@@H]2C(=O)O[C@@H](c3ccccc3)[C@@H](c3ccccc3)N2[C@@H](c2ccccc2OCCO)[C@]12C(=O)Nc1ccc(C#CCC(C(=O)OC)C(=O)OC)cc12 | 1.23 |
| CCCC=C(CCC)[C@@H](NC(=O)c1cccs1)c1ccc(C(F)(F)F)cc1 | -0.568 |
| COc1cc(COC(C)=O)ccc1OC(C)=O | 1.17 |
| OCCCC1=CC(c2cccs2)N(Cc2cc3c(cc2Br)OCO3)CC1 (stereo not given) | 0.211 |

## Input State its composite z-score: COc1cc2c(cc1OC)CN(C(=O)[C@@H]1[C@H]3C(=O)O[C@H](c4ccccc4)[C@H](c4ccccc4)N3[C@H](c3ccccc3OCCO)[C@@]13C(=O)Nc1ccc(C#CCCO)cc13)CC2
## Output 0.249

## Input Please list composite z-score recorded for the compound CC(C)OC(=O)C=C1C[C@@H](c2ccccn2)O[C@@H](c2ccccn2)O1
## Output 1.47

## Input Look up and state reported composite z-score for Cc1nc2cc(Br)ccc2c(=O)o1
## Output 0.436

## Input Determine its reported composite z-score: COC(=O)[C@@]1(Cc2ccc(F)cc2)[C@H]2c3cc(C(=O)N4CCCC4)n(CCCNc4ncc(C(F)(F)F)cc4Cl)c3C[C@H]2CN1C(=O)c1ccccc1
## Output -0.808

* * *

We begin with a simple list: items and their reported composite z-score.
Tested on: Sonic hedgehog protein (Shh)
Assay: small-molecule binders of Shh protein, primary screen, biochemical, small-molecule microarray, 635/667 nm fluorescence (AID 1151);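 further: Shh protein binding to compounds spotted on small-molecule microarray slides; score combines spot fluorescence intensity with signal-to-noise across triplicate slides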
Settings: small-molecule microarray binding, 635 nm fluorescence; higher = more signal
Reply with the value as a number alone.

| MOLECULE | MEASURED QUANTITY | NUMBER |
| --- | --- | --- |
| O=C1C[C@@](C(=O)NCC(F)(F)F)(c2ccc([N+](=O)[O-])cc2)[C@@H](c2ccc(CO)cc2I)N1C1CCCCC1 | composite z-score | 0.491 |

## Input Look up Sonic hedgehog protein (Shh) data: composite z-score of CN(C)C(=O)[C@@]1(CCS(=O)(=O)c2ccccc2)COC(c2ccc(OCCCO)cc2)=N1 , then report it.
## Output -0.977

## Input Enter recorded composite z-score with Sonic hedgehog protein (Shh) for C=CC(=C)[C@H]1Oc2ccccc2S(=O)(=O)N2CCC[C@@H]12 here.
## Output 0.0906

## Input Answer briefly: composite z-score recorded on Sonic hedgehog protein (Shh) for COC(=O)[C@@]1(Cc2ccc(OC)cc2)[C@H]2c3cc(C(=O)N(C)C)n(CCc4ccccn4)c3C[C@H]2CN1C(=O)c1ccccc1
## Output -0.127

## Input Report composite z-score from Sonic hedgehog protein (Shh) testing of CC[C@@H]1C=C(C(=O)O)[C@H](c2ccc(Br)cc2)N1S(=O)(=O)c1ccc(C)cc1
## Output 0.248

## Input Send back Sonic hedgehog protein (Shh) composite z-score of CC1(C)C2C=C(C(O)C3C=CC4C(=O)NC(=O)C4N3Nc3ccc(Cl)cc3Cl)C[C@@H]1C2 (stereo partly drawn) only.
## Output -0.193

## Input Report composite z-score under test system Sonic hedgehog protein (Shh) for O=C(NC1CC1)[C@@H]1c2ccccc2C(=O)N(Cc2ccccc2Cl)[C@H]1c1ccc(CO)cc1 .
## Output 0.957

## Input For Sonic hedgehog protein (Shh), give the measured composite z-score of the entry NCCCCCNC(=O)[C@@H]1C[C@@H]2C(=O)N[C@@H](Cc3ccccc3)C(=O)N2[C@@H]1c1ccc(O)cc1
## Output 1.2

* * *

Test: FRG1 promoter luciferase signal modulators, primary screen, FRG1 inhibition for FSHD, cell-based, C2C12 myotubes, firefly/Renilla luciferase, luminescence (AID 1084)
Conditions: higher = more signal, called active from +8 up or from −8 down
# maps each entry to its z-score
# answer = number (no unit)

Example entries and their recorded answers appear below.
| COMPOUND | z-score |
| --- | --- |
| COCCCNC(=O)[C@@]1(C)c2ccccc2C(=O)N(C(C)C)[C@H]1c1ccc(CO)cc1 | 0.214 |
| CCN(CC)c1ccc(N2CC=CC34O[C@@H]5C=CCCOC(=O)C5[C@H]3C(=O)N(CCCCCCO)[C@@H]4C2=O)cc1 (some centres undefined) | -0.959 |
| COc1ccc([Si](C)(C)[C@H]2[C@H](CCO)O[C@@]3(C(=O)N(Cc4ccc(N(C=O)c5ccccc5)cc4)c4ccccc43)[C@@H]2C)cc1 | -4.11 |

## Input Supply reported z-score belonging to this compound: CC(C)=CCN[C@H](CO)c1ccccc1
## Output 1.07

* * *

Test: small-molecule microarray binders of probe aDKK1, primary screen, biochemical, biotinylated probe, 635/667 nm fluorescence (AID 1099);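 further: score merges 667nm spot fluorescence with signal to noise across triplicate slides; reference of the scale not given here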
Conditions: higher = more signal
MEASURED QUANTITY: composite z-score
Lab note: write the figure by itself, no unit.

| MOLECULE | composite z-score |
| --- | --- |
| CN(C)CCCCCCNC(=O)[C@H]1C[C@H]2C(=O)N3CCC[C@H]3C(=O)N2[C@H]1c1ccc(O)cc1 | 0.11 |
| [N-]=[N+]=NCc1ccccc1C[C@]1(C(N)=O)COC(c2ccc(OCCCO)cc2)=N1 | 1.13 |
| CN1C(=O)C2C=CC(C(O)C#Cc3ccccc3)N(N3CCCCC3)C2C1=O (centres undefined) | 1.01 |

## Input Given COCCOC(=O)N1C(=O)[C@@]2(c3cc(C#Cc4ccc(OC)cc4)ccc31)[C@H](c1ccc(OCCO)cc1)N1[C@H](c3ccccc3)[C@H](c3ccccc3)OC(=O)[C@H]1[C@@H]2C(=O)N1CCN(c2ncccn2)CC1 , respond with its composite z-score.
## Output 0.775
